molecular target: rat liver alcohol dehydrogenase (Rattus norvegicus, UniProt P06757); experiment: Oxidation of alcohols by isolated rat liver alcohol dehydrogenase; conditions: pH 7.3, 37 °C, 0.5 mM NAD+
Sequence (P06757 2-376 limits assumed): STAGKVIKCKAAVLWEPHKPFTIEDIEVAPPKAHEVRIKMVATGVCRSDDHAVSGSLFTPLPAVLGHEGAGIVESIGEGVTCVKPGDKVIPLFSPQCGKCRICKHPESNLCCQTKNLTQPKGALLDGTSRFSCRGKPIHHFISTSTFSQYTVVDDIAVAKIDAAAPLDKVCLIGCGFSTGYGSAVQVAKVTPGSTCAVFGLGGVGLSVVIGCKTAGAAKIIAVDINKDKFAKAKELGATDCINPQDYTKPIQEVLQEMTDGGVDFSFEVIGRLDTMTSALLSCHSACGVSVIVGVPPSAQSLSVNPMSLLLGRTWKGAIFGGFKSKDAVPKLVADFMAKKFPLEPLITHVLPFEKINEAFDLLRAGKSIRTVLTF
Below, each of the compounds is paired with its reported Vrel/K value.
property-measured: Vrel/K

# compound, assay-value
measured = [
    ("CCCO", 4.3),
    ("CCO", 1.6),
    ("[2H]C([2H])([2H])C([2H])(O)C([2H])([2H])[2H]", 0.0024),
    ("OCCCO", 0.031),
    ("CCC(C)O (stereo not drawn)", 0.04),
    ("CCCCO", 9.3),
    ("OCCCCCO", 1.0),
    ("CCC(O)CC", 0.14),
    ("OCc1ccccc1", 13),
    ("CC(C)O", 0.011),
    ("CC(C)CO", 4.2),
    ("OC1CCCC1", 2.2),
]

###

conditions: rat, in vivo
property-measured: Km (mM)

# molecule, assay-value
rows = [
    ("CC(C)O [2-Propanol, 2-propanol]", 58),
]

###

molecular target: rat liver alcohol dehydrogenase (Rattus norvegicus, UniProt P06757); assay: Oxidation of alcohols by isolated rat liver alcohol dehydrogenase; details: 83 mM potassium phosphate, 40 mM KCl, pH 7.3, 37 °C, 0.5 mM NAD+
property-measured: V rel (Vmax relative to ethanol as substrate)

# compound, test-target, assay-value
data = [
    ("OCc1ccccc1", "rat liver alcohol dehydrogenase (Rattus norvegicus, UniProt P06757)", "0.47 ± 0.03"),
    ("CCCO", "rat liver alcohol dehydrogenase (Rattus norvegicus, UniProt P06757)", "0.95 ± 0.07"),
    ("OC1CCCC1", "rat liver alcohol dehydrogenase (Rattus norvegicus, UniProt P06757)", "0.72 ± 0.04"),
    ("[2H]C([2H])([2H])C([2H])(O)C([2H])([2H])[2H]", "rat liver alcohol dehydrogenase (Rattus norvegicus, UniProt P06757)", "0.20 ± 0.02"),
    ("OCCCO", "rat liver alcohol dehydrogenase (Rattus norvegicus, UniProt P06757)", "0.75 ± 0.04"),
    ("CCO", "rat liver alcohol dehydrogenase (Rattus norvegicus, UniProt P06757)", "(1.0)"),
    ("CCC(C)O (stereo not shown)", "rat liver alcohol dehydrogenase (Rattus norvegicus, UniProt P06757)", "0.48 ± 0.03"),
    ("CC(C)O", "rat liver alcohol dehydrogenase (Rattus norvegicus, UniProt P06757)", "0.40 ± 0.02"),
    ("CC(C)CO", "rat liver alcohol dehydrogenase (Rattus norvegicus, UniProt P06757)", "0.80 ± 0.04"),
    ("CCCCO", "rat liver alcohol dehydrogenase (Rattus norvegicus, UniProt P06757)", "1.3 ± 0.1"),
    ("CC(C)CCO", "rat liver alcohol dehydrogenase (Rattus norvegicus, UniProt P06757)", "0.54 ± 0.02"),
    ("CCC(O)CC", "rat liver alcohol dehydrogenase (Rattus norvegicus, UniProt P06757)", "0.69 ± 0.03"),
    ("OCCCCCO", "rat liver alcohol dehydrogenase (Rattus norvegicus, UniProt P06757)", "3.6 ± 1.3"),
]

###

conditions: from inhibition by 1 mmole/kg 4-methylpyrazole
Below, each of the molecules is paired with its reported %ADH (estimated percentage of elimination due to ADH) value.
property-measured: %ADH (estimated percentage of elimination due to ADH) (%)

# molecule, unit-abbreviation, assay-value
data = [
    ("CCC(C)O (centres unmarked)", "%", 68),
    ("CCCO", "%", 81),
    ("OCCCO", "%", 63),
    ("OC1CCCC1", "%", 64),
    ("CC(C)CO", "%", 66),
    ("CC(C)O", "%", 55),
    ("CCCCO", "%", 56),
    ("CC(C)CCO", "%", 61),
]
